B1: LINE1-mini (parent)
chain: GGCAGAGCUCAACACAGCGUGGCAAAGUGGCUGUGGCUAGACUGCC

Variants of: B1
assay.comment: self-cleavage, relative activity (ratio to wild type); higher = more cleavage; in vitro, sequencing; the parent is a self-cleaving ribozyme

# mutant.label, self-cleavage
measured = [
    ("C18U C37G", 0.04),
    ("G21C C46U", 0.83),
    ("G40U C42U", 0.07),
    ("C3A A12G", 0.12),
    ("G5U A25G", 0.12),
    ("G5C U20C", 0.18),
    ("G17U G27U", 0.35),
    ("A26C C42G", 0.04),
    ("G17U G35A", 0.07),
    ("U34G C45U", 0.19),
    ("G35C C45G", 0.03),
    ("A11G G19A", 0.04),
    ("A12C G21A", 0.02),
    ("G5C C15U", 0.08),
    ("A24G G44A", 1),
    ("G7C A24U", 0.19),
    ("A39U U43A", 0.06),
    ("C8A C10G", 0.02),
    ("A16C C31G", 0.03),
    ("A4G G36C", 0.16),
    ("A25G U34G", 0.12),
    ("C31U G33U", 0.06),
]
